# Measurement Target: mitochondrial RNA-polymerase (POLRMT) (Mus musculus, UniProt Q8BKF1)
# Sequence (Q8BKF1 42-1207): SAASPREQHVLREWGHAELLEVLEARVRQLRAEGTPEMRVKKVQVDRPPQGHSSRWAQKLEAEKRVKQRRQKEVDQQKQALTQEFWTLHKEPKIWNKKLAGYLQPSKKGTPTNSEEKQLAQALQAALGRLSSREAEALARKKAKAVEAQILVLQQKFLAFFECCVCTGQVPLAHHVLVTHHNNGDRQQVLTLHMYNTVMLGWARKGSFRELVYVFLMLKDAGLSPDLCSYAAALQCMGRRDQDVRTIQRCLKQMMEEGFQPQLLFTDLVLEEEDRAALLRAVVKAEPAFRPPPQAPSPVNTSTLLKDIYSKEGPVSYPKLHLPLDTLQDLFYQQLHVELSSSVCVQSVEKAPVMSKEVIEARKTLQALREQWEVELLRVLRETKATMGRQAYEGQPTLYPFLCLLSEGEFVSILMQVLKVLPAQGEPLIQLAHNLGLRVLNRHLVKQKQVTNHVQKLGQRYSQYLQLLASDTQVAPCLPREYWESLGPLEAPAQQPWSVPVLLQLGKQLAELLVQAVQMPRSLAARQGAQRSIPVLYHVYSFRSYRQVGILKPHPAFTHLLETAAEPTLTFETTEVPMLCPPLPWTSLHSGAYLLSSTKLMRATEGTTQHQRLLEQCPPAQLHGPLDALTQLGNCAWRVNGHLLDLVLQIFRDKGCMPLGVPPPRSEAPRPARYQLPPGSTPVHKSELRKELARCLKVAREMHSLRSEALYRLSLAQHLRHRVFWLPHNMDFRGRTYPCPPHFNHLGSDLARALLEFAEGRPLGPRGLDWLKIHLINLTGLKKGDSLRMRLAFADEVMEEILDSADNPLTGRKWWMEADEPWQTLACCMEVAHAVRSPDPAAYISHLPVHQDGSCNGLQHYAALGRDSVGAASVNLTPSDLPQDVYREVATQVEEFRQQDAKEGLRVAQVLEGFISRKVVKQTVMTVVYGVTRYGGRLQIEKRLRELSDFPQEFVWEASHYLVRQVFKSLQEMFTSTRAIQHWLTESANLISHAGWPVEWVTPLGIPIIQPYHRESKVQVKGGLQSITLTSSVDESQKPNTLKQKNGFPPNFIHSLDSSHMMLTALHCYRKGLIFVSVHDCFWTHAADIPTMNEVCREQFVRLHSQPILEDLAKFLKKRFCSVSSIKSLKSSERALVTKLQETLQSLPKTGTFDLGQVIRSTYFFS
pIC50: −log10 of the molar value.
Listing of entries alongside the reported pIC50.

Please review the entries below; each comes with its answer.
CC(C)OC(=O)C(C)Oc1ccc2c(-c3ccccc3)cc(=O)oc2c1 (centres unmarked) ... 7.00 to 7.70
CC(Oc1ccc2c(-c3ccccc3)cc(=O)oc2c1)C(=O)N1CCC[C@H](C(=O)N(C)C)C1 (mixture of isomers) ... 5.00 to 6.00
CCOC(=O)COc1ccc2c(-c3ccccc3)cc(=O)oc2c1 ... 5.00 to 6.00
CNC(=O)C(C)Oc1ccc2c(-c3ccccc3)cc(=O)oc2c1 (centres unmarked) ... 6.00 to 7.00
CC(Oc1cc2oc(=O)cc(-c3ccccc3)c2cc1Cl)C(=O)NCCN1CCOCC1 (centres unmarked) ... 5.00 to 6.00

// returns reported pIC50 for input CCOC(=O)C(C)Oc1ccc2c(-c3ccc(F)cc3)cc(=O)oc2c1 (centres unmarked)
6.00 to 7.00

// returns reported pIC50 for input CC(Oc1ccc2c(-c3ccccc3)cc(=O)oc2c1)C(=O)N1CCCC(C(=O)O)C1 (centres unmarked)
6.00 to 7.00

// returns reported pIC50 for input O=C(COc1cc2oc(=O)cc(-c3ccccc3)c2cc1Cl)N1CCOCC1
5.00 to 6.00

###

Listing of entries alongside the reported IC50.
# System: mitochondrial transcription (7S RNA) in HeLa cells
# Protocol: Quantitative real time-PCR assay of inhibition of mitochondrial transcription (7S RNA) in HeLa cells
# Format: cell-based
# Measurement Parameters: Homo sapiens, 4 h incubation, Example 5, read-out: cellular qPCR assay IMT (IC-50)
# Description: Quantitative real-time PCR (qRT-PCR), based on the TaqMan™ (Thermo Fisher Scientific, Waltham Mass.) technology, was carried out essentially as described in (Heid et al. 1996). […] For these measurements, three genes were used to compare the effect of the scrutinized compounds in relation to their concentration. […] Mitochondrial transcription in vivo was monitored by measurements 7S RNA. […]

CC(Oc1ccc2c(-c3ccccc3)cc(=O)oc2c1)C(=O)OC(C)(C)C (centres unmarked) [Compound 1] ... < 10 nM
CC(C)OC(=O)C(C)Oc1ccc2c(-c3ccccc3)cc(=O)oc2c1 (centres unmarked) [Compound 53] ... < 10 nM
CC(Oc1ccc2c(-c3ccccc3)cc(=O)oc2c1)C(=O)N1CCCC1 (centres unmarked) [Compound 31] ... 50 to 500 nM
CCOC(=O)C(C)Oc1ccc2c(-c3cccc(F)c3)cc(=O)oc2c1 (centres unmarked) [Compound 7] ... 10 to 50 nM

Any idea what IC50 came out for CCOC(=O)[C@@H](C)Oc1ccc2c(-c3ccccc3)cc(=O)oc2c1 [Compound 33] on mitochondrial transcription (7S RNA) in HeLa cells?
< 10 nM

###

# System: mitochondrial transcription (7S RNA) in HeLa cells
# Protocol: Quantitative real time-PCR assay of inhibition of mitochondrial transcription (7S RNA) in HeLa cells
# Type: cell-based
# Measurement Parameters: Homo sapiens, 4 h incubation, Example 5, read-out: cellular qPCR assay IMT (IC-50)
pIC50: −log10 of the molar value.
Listing of entries alongside the reported pIC50.

Please review the entries below; each comes with its answer.
COC(=O)C1CCCN(C(=O)C(C)Oc2ccc3c(-c4ccccc4)cc(=O)oc3c2)C1 (stereo not drawn) ... 6.30 to 7.30
CC(Oc1ccc2c(-c3ccccc3)cc(=O)oc2c1)C(=O)N(C)C (stereo not drawn) ... 7.30 to 8.00
CCNC(=O)C(C)Oc1ccc2c(-c3ccccc3)cc(=O)oc2c1 (stereo not drawn) ... 6.30 to 7.30
CCOC(=O)C(C)Oc1ccc2c(-c3ccccc3)cc(=O)oc2c1 (stereo not drawn) ... 6.30 to 7.30
CC(C)NC(=O)C(C)Oc1ccc2c(-c3ccccc3)cc(=O)oc2c1 (stereo not drawn) ... 6.30 to 7.30

// returns reported pIC50 for input CCOC(=O)C(C)Oc1ccc2c(-c3ccc(OC)cc3)cc(=O)oc2c1 (stereo not drawn)
5.00 to 6.30

// returns reported pIC50 for input CCOC(=O)C(C)(C)Oc1ccc2c(-c3ccccc3)cc(=O)oc2c1
7.30 to 8.00

// returns reported pIC50 for input C[C@@H](Oc1ccc2c(-c3ccccc3)cc(=O)oc2c1)C(=O)N(C)C
7.30 to 8.00

// returns reported pIC50 for input CC(Oc1ccc2c(-c3ccccc3)cc(=O)oc2c1)C(=O)N1CCCC(C#N)C1 (stereo not drawn)
> 8.00

###

# Measurement Target: mitochondrial RNA-polymerase (POLRMT) (Mus musculus, UniProt Q8BKF1)
pIC50: −log10 of the molar value.
Assay Readout: pIC50

CC(C)COC(=O)COc1ccc2c(-c3ccccc3)cc(=O)oc2c1 [Compound 77] ... 5.00 to 6.00
C[C@@H](Oc1ccc2c(-c3ccccc3)cc(=O)oc2c1)C(=O)N(C)C [Compound 34] ... 6.00 to 7.00
CC(Oc1ccc2c(-c3ccccc3)cc(=O)oc2c1)C(=O)O (stereo not shown) [Compound 51] ... 6.00 to 7.00
O=C(O)COc1cc2oc(=O)cc(-c3ccccc3)c2cc1Cl [Compound 88] ... 5.00 to 6.00
CC(Oc1ccc2c(-c3ccccc3)cc(=O)oc2c1)C(=O)Nc1ccccn1 (stereo not shown) [Compound 6] ... 6.00 to 7.00
O=C(COc1cc2oc(=O)cc(-c3ccccc3)c2cc1Cl)NCc1ccccn1 [Compound 99] ... 5.00 to 6.00
CCOC(=O)C(C)Oc1ccc2c(-c3ccccc3)cc(=O)oc2c1 (stereo not shown) [Compound 52] ... 6.00 to 7.00
CC(Oc1ccc2c(-c3ccccc3)cc(=O)oc2c1)C(=O)Nc1ccncc1 (stereo not shown) [Compound 61] ... 5.00 to 6.00
O=C(COc1cc2oc(=O)cc(-c3ccccc3)c2cc1Cl)NC[C@H]1CC[C@H](C(=O)O)CC1 [Compound 98] ... 5.00 to 6.00
CCOC(=O)COc1cc2oc(=O)cc(-c3ccccc3)c2cc1Cl [Compound 49] ... 6.00 to 7.00

// returns reported pIC50 for input O=C(COc1cc2oc(=O)cc(-c3ccccc3)c2cc1Cl)N1CCCc2ccccc21 [Compound 78]
5.00 to 6.00

// returns reported pIC50 for input CCOC(=O)[C@H]1CCCN(C(=O)[C@@H](C)Oc2ccc3c(-c4ccccc4)cc(=O)oc3c2)C1 [Compound 35]
6.00 to 7.00

// returns reported pIC50 for input O=C(O)C1CCCN(C(=O)COc2cc3oc(=O)cc(-c4ccccc4)c3cc2Cl)C1 (stereo not shown) [Compound 85]
5.00 to 6.00

// returns reported pIC50 for input O=C(COc1ccc2c(-c3ccccc3)cc(=O)oc2c1)Nc1ccccn1 [Compound 22]
6.00 to 7.00

// returns reported pIC50 for input CC(Oc1ccc2c(-c3ccccc3)cc(=O)oc2c1)C(=O)Nc1cccnc1 (stereo not shown) [Compound 55]
5.00 to 6.00

// returns reported pIC50 for input CCNC(=O)C(C)Oc1ccc2c(-c3ccccc3)cc(=O)oc2c1 (stereo not shown) [Compound 30]
5.00 to 6.00

// returns reported pIC50 for input COC(=O)C1CCCN(C(=O)COc2ccc3c(-c4ccccc4)cc(=O)oc3c2)C1 (stereo not shown) [Compound 23]
5.00 to 6.00

// returns reported pIC50 for input CC(Oc1ccc2c(-c3ccccc3)cc(=O)oc2c1)C(=O)OCc1ccccc1 (stereo not shown) [Compound 93]
5.00 to 6.00

// returns reported pIC50 for input C[C@@H](Oc1ccc2c(-c3ccccc3)cc(=O)oc2c1)C(=O)N1CCC[C@H](C(=O)O)C1 [Compound 21]
6.00 to 7.00

###

Listing of entries alongside the reported pIC50.
# Measurement Target: mitochondrial RNA-polymerase (POLRMT) (Mus musculus, UniProt Q8BKF1)
pIC50: −log10 of the molar value.

CCCc1cc2c(-c3ccccc3)cc(=O)oc2cc1OC(C)C(=O)O (centres unmarked) [Compound 97] ... 5.00 to 6.00

// next entry
Any idea what pIC50 came out for CC(Oc1ccc2c(-c3ccccc3)cc(=O)oc2c1)C(=O)N1CCCC1 (centres unmarked) [Compound 31] on mitochondrial RNA-polymerase (POLRMT) (Mus musculus, UniProt Q8BKF1)?
6.00 to 7.00

###

pIC50: −log10 of the molar value.
Record type: pIC50 measurement. Applies to: mitochondrial RNA-polymerase (POLRMT) (Mus musculus)

CC(Oc1cc2oc(=O)cc(-c3ccccc3)c2cc1Cl)C(=O)Nc1ccccn1 (stereo not drawn) ... 6.00 to 7.00

Any idea what pIC50 came out for CC(C)NC(=O)C(C)Oc1ccc2c(-c3ccccc3)cc(=O)oc2c1 (stereo not drawn) on mitochondrial RNA-polymerase (POLRMT) (Mus musculus)?
6.00 to 7.00

Any idea what pIC50 came out for O=C(COc1cc2oc(=O)cc(-c3ccccc3)c2cc1Cl)NC1C=CS(=O)(=O)C1 (stereo not drawn) on mitochondrial RNA-polymerase (POLRMT) (Mus musculus)?
5.00 to 6.00

Any idea what pIC50 came out for CC(Oc1cc2oc(=O)cc(-c3ccccc3)c2cc1Cl)C(=O)Nc1ccc(CCO)cc1 (stereo not drawn) on mitochondrial RNA-polymerase (POLRMT) (Mus musculus)?
6.00 to 7.00

Any idea what pIC50 came out for CCN(CC)C(=O)COc1cc2oc(=O)cc(-c3ccccc3)c2cc1Cl on mitochondrial RNA-polymerase (POLRMT) (Mus musculus)?
6.00 to 7.00

Any idea what pIC50 came out for CC(C)(C)OC(=O)COc1ccc2c(-c3ccccc3)cc(=O)oc2c1 on mitochondrial RNA-polymerase (POLRMT) (Mus musculus)?
6.00 to 7.00

Any idea what pIC50 came out for CC(Oc1ccc2c(-c3ccccc3)cc(=O)oc2c1)C(=O)N(C)c1ccc(CCO)cc1 (stereo not drawn) on mitochondrial RNA-polymerase (POLRMT) (Mus musculus)?
6.00 to 7.00

Any idea what pIC50 came out for CCOC(=O)C(C)Oc1cc2oc(=O)cc(-c3ccccc3)c2cc1Cl (stereo not drawn) on mitochondrial RNA-polymerase (POLRMT) (Mus musculus)?
6.00 to 7.00

Any idea what pIC50 came out for O=C(COc1cc2oc(=O)cc(-c3ccccc3)c2cc1Cl)NC1CCCCCCC1 on mitochondrial RNA-polymerase (POLRMT) (Mus musculus)?
5.00 to 6.00
